# ASSAY_OVERVIEW: yeast display, Sf9 membrane polyspecificity reagent, FACS + sequencing; frameworks hold sequencing errors

{"columns": ["BIOPOLYMER_SEQUENCE", "polyreactivity (PSR sort gate)"],
 "data": [
  ["QVQLVESGGCLVQAGGSLRLSCCASARTFWYYTMGWYRQAPGKERELVASISRVTSTYYADSVKGRLTSSRDNAKNTVYLQMNSLKPEDTAVYYCAGLQIRRSYWRTFYWGQGTQVTVSS", "low polyreactivity"],
  ["QVQLVESGGGLVQAGGSLRLSCAASGSTFWYYAMGWYRQAPGKERELVASITYSGGSTYYADSVKGRFTISRDNAKNTVYLQMNSLKPEDSAVYYCAAEGYYSNYHYWGQGTQVTVSS", "low polyreactivity"],
  ["QFQLVESGRGLVQAGGSLRLSCAASVRIFLWYAMGWYRQAPGKERELVAVIRGRGDSTSYADSVKGRFTISRDNAKNTVYLQMNSLKPEDTAVYYCADVGRYDYNYWGQGTQVTVSS", "low polyreactivity"],
  ["QVQLVESGGGLVQAGGSLRLSCAASGSIFVINAMGWYRQAPGKERELVAAISYSGTGTYYADSVKGRFTISRDNAKNTVYLQMNSLKAEDTAVYYCAADFYYRYRIYDYWGQGTQVTVSS", "low polyreactivity"],
  ["QVQLVESGVGLVQAGGSLRLSCADSGLILSKYAKVWYRPAPGKEREFVAAITQTGSRTYYADSVKGRFTSSRDNAKNTVYLQMNSLKPEDTAVYYCNAVNYRSSRDSGYWGQGTQVTVSS", "high polyreactivity"],
  ["QVQLVESGGGLVQAGGSLRLSCAASGFIFDSYVMGWYRQAPGKEREMVAAISSGGASTYYADSVKGRFTISRDNAKNTVYLQMNSLKPEDTAVYYCAAEYLYQPWGVDYDYWGQGSQVTVSS", "high polyreactivity"],
  ["QVQLVESGGGLVQAGGSLRLSCDASASILRENAMGWYRQAPGKERELVAVITRGGNTYYADSVKGRFTISRDNAKNTVYLQMNSLKPEDTAVYYCAAKRRERYGQTYGYWGQGTQVTVSS", "high polyreactivity"],
  ["QVQLVESCGGLVHAGGSLRLSCAASGRSFYRYAMGWYRKAPGKERELVAAISSGGSTYYADSVKGRFTISRDNANNTDYLQMNSLKPEDTAVYYCNADYGRRIHMDYWGQGTQVTVSS", "low polyreactivity"],
  ["QVPLVESGGGLVQAGGSLRLSCAASGSIFGQYAMGWYRQAPGKERELVAAIRDGTGSTYYAVSVKGRFTISRDNAKNTVYVQMNSLKPEDRAVYYCAADYIWTSIVHYEYWGQGTEVTVSS", "high polyreactivity"],
  ["QVQLVESGGGLVQAGGSLRLSCAASGSIFVRNAMGWCRQAPGKERELVAAITARGGSTYYADSVKGRFTISRDNAKNTVYLQMNSLKPEDTAVYYCARSYYYRGWAQWRYDYWGQGTQVTVSS", "high polyreactivity"],
  ["QVQLVESGGGLVQAGGILRLSCAASGRIFTRYSLGWYRPAPGKESELVAAISSGGSTYYADSVKGRFTISRDNAKNTVYLQMNSLKPEDTAVYYSAAKTRPQRTFSTRQQMNYWGQGTQVTVSS", "high polyreactivity"],
  ["QVQLVESGGGLVQAGCSLRLSCAASGITFVYYAMGRYRQAAGKERELVAAITTGGSTNYADSVKGRFTISRDNAKYTVYLQMNSLKPEDTAVYYCNKRPVILYDYWGQGTQVTVSS", "low polyreactivity"],
  ["QVQLVESGGGLVQAGGSLRLSCAASGRIFSRYAMGWYRQAPGKERELVATISSGGGTYYADSVKGRFTISRDTAKNTVYLQMNSLKPEDTAVYYCAAASYSGHGRYDDWGQGTQVSVSS", "high polyreactivity"],
  ["QVQLVESGGGLVQAGGSLRLRCAASGFTYSYYAMGWYRQAPGKERELVAAINSGGSTYYADSVKGRFTISRDNAKNTVFLLMNSLKPEDTAVYYCAAVYSPGRGYGYIYYYWGQGSQVTVSS", "high polyreactivity"],
  ["QVQLVESGGGLVQAGGSLRLRCAASGRIFPYYAMGWYRQSPGKERELVAAIRWSGGDTYYADSVKGRFTISRDNAKNTVYLQMNSLKPEDTAVYYCAAKAYSYSRWGYYGYYYWGQGTQVTVSS", "high polyreactivity"],
  ["QVQLVESGGGLVQAGGSLRLSCAASGIIFVKYAMGWYRQAPGKERQLVAAITSGGSTYYADSVKGRFTISRDNAMYTVYLQMNSLKPEDTAVYYCNADSWFLYFFTINGYWGQGTQVTVSS", "high polyreactivity"],
  ["QVQLVESGGGLVQAGGSLRLSCAASGIIFAYYAMGWYRQAPGKERELVAAITSGGSTHYADSVKGRFTISRDNAKNTVYLKMNSLKPEDTAVYYCAADVSYYASLFDYGGQGTQVTVSS", "low polyreactivity"],
  ["QVQLVESGGGLVQAGGSLRLSCAASGLTFDVYTMGWYRQAPGKERELVATISETYYADSVKGRFTISRDNAKNTVYLQMNSLKPEDTAVYYCAANGFKAQYRDIVYDYGYWGQGTQVTVSS", "low polyreactivity"],
  ["QVQLVESGGGLVQAGGSLRLSCAASGRILYWYAMGWYRQAPGKERELVAGIDWSGGSTYYADSVKGRFTISRDNAKNTVYLQMNSLKPEDTAVNYCNAVQNRGRGSHRGESTYYYWGQGTQVTVSS", "low polyreactivity"],
  ["QVQLVESGGGLVQAGGSLRLSCAASGRIFGLYAMGWYRQAPGKERELVAAITRGGRTNYADSVKGRFTISRDNAKNTVYLQMNSLKPEDTAVYYCAADYRYTRGRRDYWGQGTQVTVSS", "high polyreactivity"],
  ["QVQLVESGGGLVQAGGSLRLSCAASGGISTAYTMGWYRQAPGKERELVADITRSGGRTYYADSVKGRFTISRDNAKNTVYLQMNSLKPEDTAVYYCARTYYYRFNYWGQGTQVTVSS", "high polyreactivity"]
]}
